Origin of measurements: ChEMBL document CHEMBL3526015

- Tested on: Liver microsome
- Protocol Summary: Drug metabolism in human liver microsomes assessed as T-5224 acyl O-glucuronide formation after 10 to 60 mins by HPLC method
- Assay type: ADME
Property Measured: Km (µM)
Quick reminder: number only, in µM, skip the unit.

Any idea what its Km is? The compound is `O=C(O)CCc1cc(C(=O)c2ccc(OC3CCCC3)cc2O)ccc1OCc1ccc2c(O)noc2c1`
4.93

----------
- Assayed System: UDP-glucuronosyltransferase 1A3 (Homo sapiens, UniProt P35503)
- Sequence (P35503 whole entry): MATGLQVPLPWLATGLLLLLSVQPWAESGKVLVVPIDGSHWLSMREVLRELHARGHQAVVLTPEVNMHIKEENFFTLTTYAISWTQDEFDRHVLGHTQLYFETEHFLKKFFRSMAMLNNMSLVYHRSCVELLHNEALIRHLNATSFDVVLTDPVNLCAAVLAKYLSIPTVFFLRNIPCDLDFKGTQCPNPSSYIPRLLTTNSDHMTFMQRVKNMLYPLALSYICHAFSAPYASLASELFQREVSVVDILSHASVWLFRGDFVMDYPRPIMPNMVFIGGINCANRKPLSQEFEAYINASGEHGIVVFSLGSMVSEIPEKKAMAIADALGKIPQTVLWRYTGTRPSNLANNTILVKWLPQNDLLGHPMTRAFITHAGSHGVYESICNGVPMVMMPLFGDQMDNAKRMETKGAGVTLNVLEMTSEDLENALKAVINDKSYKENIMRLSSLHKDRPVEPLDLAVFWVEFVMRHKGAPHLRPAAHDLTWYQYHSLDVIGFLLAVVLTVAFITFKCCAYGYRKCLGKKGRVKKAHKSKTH
- Protocol Summary: Substrate inhibition of human UGT1A3-mediated T-5224 hydroxyl O-glucuronide formation after 10 to 60 mins in presence of UDP-glucuronic acid by HPLC method
- Assay type: ADME
Property Measured: pKi
Formally, pKi is defined as -log10 of the concentration c, with c in mol/L.

Any idea what pKi was measured for `O=C(O)CCc1cc(C(=O)c2ccc(OC3CCCC3)cc2O)ccc1OCc1ccc2c(O)noc2c1` ?
5.59
